What inhibition at 50 µM was measured for each of the following?
Molecular target: human SARM1(50-724) (Homo sapiens, UniProt Q6SZW1)
Construct: 40 nM human SARM1(50-724)
Test: SARM1 NADase biochemical assay (HPLC peak areas of NAD and NAM)
Settings: 50 μM compound; NAD peak area; read-out: Avg NAD % inhibition at 50 μM
Protocol: The reaction was incubated at room temperature for 60 minutes and quenched with 20 μL of 0.4% formic acid. […] Total run time for each sample was 4 minutes. […] Samples were run at a flow rate of 0.8 mL/min at 55° C. Peak areas of NAD and NAM were determined using OpenLAB CDS (Chem Station edition) software. For dose-response, the compound was diluted serially 1:3 in DMSO and added to the reaction starting at a final compound concentration of 100 μM in 1% DMSO.

// query Recorded inhibition at 50 µM of N#Cc1ccc(C(=O)Nc2ccn(Cc3ccncc3)n2)cc1 , please.
// result 0 to 50%

// query // inhibition at 50 µM lookup, key: O=C(CCc1ccc(Cl)cc1)Nc1ccn(Cc2ccncc2)n1
// result 0 to 50%

// query Recorded inhibition at 50 µM for CNc1ccn(Cc2ccncc2)n1 , please?
// result 0 to 50%

// query Need inhibition at 50 µM, item CCCNc1ccn(Cc2ccncc2)n1
// result 0 to 50%

// query inhibition at 50 µM for O=C(Nc1ccn(Cc2ccncc2)n1)c1ccccc1Cl ?
// result 0 to 50%

// query Please look up its inhibition at 50 µM: O=C(Nc1ccn(Cc2ccncc2)n1)c1ccc2c(c1)CCC2
// result 0 to 50%

// query inhibition at 50 µM value for entry O=C(Nc1ccn(Cc2ccncc2)n1)c1ccccn1
// result 0 to 50%

// query Name the recorded inhibition at 50 µM for FC(F)(F)CNc1ccn(Cc2ccncc2)n1 .
// result 0 to 50%

// query Please give the measured inhibition at 50 µM for this compound: O=C(Nc1ccn(Cc2ccncc2)n1)c1ccc(O)c(O)c1
// result 51 to 100%

// query Find the recorded inhibition at 50 µM belonging to O=C(Nc1ccn(Cc2ccncc2)n1)c1ccc(O)cc1 and report it.
// result 0 to 50%

----------
Target: human SARM1(50-724) (Homo sapiens, UniProt Q6SZW1)
Construct: 40 nM human SARM1(50-724)
Sequence (Q6SZW1 50-724): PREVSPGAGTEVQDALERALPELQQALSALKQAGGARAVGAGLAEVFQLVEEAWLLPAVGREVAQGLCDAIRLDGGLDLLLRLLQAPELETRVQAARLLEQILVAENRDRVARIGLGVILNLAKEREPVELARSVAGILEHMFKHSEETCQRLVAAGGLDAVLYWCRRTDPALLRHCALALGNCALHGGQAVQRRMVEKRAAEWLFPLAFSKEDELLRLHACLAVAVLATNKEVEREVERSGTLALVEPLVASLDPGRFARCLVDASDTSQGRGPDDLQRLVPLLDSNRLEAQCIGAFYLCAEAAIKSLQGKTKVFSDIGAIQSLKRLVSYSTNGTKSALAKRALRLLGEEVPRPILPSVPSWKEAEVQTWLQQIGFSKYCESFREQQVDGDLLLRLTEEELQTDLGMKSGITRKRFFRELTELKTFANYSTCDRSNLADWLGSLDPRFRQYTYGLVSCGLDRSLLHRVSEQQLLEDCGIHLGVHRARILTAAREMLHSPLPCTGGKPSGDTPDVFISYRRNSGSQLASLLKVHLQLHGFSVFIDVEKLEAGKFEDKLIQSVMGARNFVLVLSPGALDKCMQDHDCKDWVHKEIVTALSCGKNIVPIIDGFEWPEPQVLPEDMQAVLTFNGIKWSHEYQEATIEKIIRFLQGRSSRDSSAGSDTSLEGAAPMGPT
Assay: SARM1 NADase biochemical assay (HPLC peak areas of NAD and NAM)
Conditions: dose-response, 1:3 serial dilution from 100 μM; 40 nM SARM1, 0.3 mM NMN, 20 μM NAD, 60 min rt
MEASURED_PARAMETER: IC50

// query Any idea what its IC50 is? The compound is CC(c1ccncc1)n1ccc(NCC(F)F)n1 (racemic)
// result < 1 µM

// query Would you kindly share the measured IC50 for CN(CC(F)(F)F)c1ccn(Cc2ccncc2)n1 ?
// result 10 to 100 µM

// query What measured IC50 goes with C[C@@H](c1ccncc1)n1ccc(NCC(F)(F)F)n1 ?
// result < 1 µM

// query Reported IC50 for [2H]C(C)(c1ccncc1)c1ccn(CC(F)(F)F)n1 (racemic) : what is it?
// result < 1 µM

// query I'd like to know its IC50. The compound in question is c1cc(Cn2ccc(Nc3nccs3)n2)ccn1
// result 1 to 10 µM

// query Look up IC50 for this compound: C[C@H](c1ccn(CC(F)(F)F)n1)c1ccncc1Cl (single isomer, unassigned) [Example 113a]
// result 1 to 10 µM

// query Entry under review: O=C(Nc1ccn(Cc2ccncc2)n1)C(F)(F)F . Reported IC50?
// result 10 to 100 µM

// query Item under review: [2H]C([2H])([2H])C(c1ccncc1)c1ccn(CC(F)F)n1 (racemic) . Reported IC50?
// result 1 to 10 µM

// query Form field: reported IC50 of CCC(c1ccncc1)n1ccc(NCC(F)(F)F)n1 (racemic)
// result 10 to 100 µM

Measured values drawn from patent US11945796B2 for this set.
